Each recorded value in this set is attributed to ChEMBL document CHEMBL5154799.

test.details: Selectivity ratio of IC50 for cytotoxicity against HUVEC cells assessed as reduction in cell viability to IC50 for cytotoxicity against human A549 cells assessed as reduction in cell viability
Type: toxicity, cell-based
measurement.conditions: HUVEC cells versus A549 cells
assay.metric: selectivity ratio
Write the number on its own, no unit after it.

Item "C=C(c1cc(OC)c(OC)c(OC)c1)c1ccc(OC)c(O)c1NC(=O)CO" has what recorded selectivity ratio?
4

###

test.details: Cmax in ICR mouse at 10 mg/kg, po single administration measured for 24 hrs post treatment by LC-MS/MS analysis
Type: ADME, organism-based
Design: time 24 hrs, dose 10 mg/kg, route po
measurement.conditions: in vivo
assay.metric: Cmax

Item "C=C(c1cc(OC)c(OC)c(OC)c1)c1ccc(OC)c(O)c1NC(=O)CO" has what recorded Cmax?
776 ng/mL

###

test.details: MRT in ICR mouse at 10 mg/kg, po single administration measured for 24 hrs post treatment by LC-MS/MS analysis
Format: ADME, organism-based
measurement.conditions: in vivo
assay.metric: MRT (h)
Number only, in h; omit the unit.

Item "C=C(c1cc(OC)c(OC)c(OC)c1)c1ccc(OC)c(O)c1NC(=O)CO" has what recorded MRT?
2.57

###

Test system: HeLa
test.details: Antiproliferative activity against human HeLa cells assessed as cell viability incubated for 48 hrs by MTT assay
Format: functional, cell-based
Rule: IC50 below 300 nM gives satisfied, anything at or above gives not satisfied.

Worked set:
COc1ccc(C(=O)c2ccc3c(c2)C=CC(C)(C)O3)c(NC(=O)CN)c1
not satisfied
COc1ccc(C(=O)c2ccc3c(c2)C=CC(C)(C)O3)c(NC(=O)CO)c1
satisfied
COc1ccc(C(=O)c2ccc(OC)c3c2C=CC(C)(C)O3)c(NC(=O)CN)c1
satisfied
CNCC(=O)Nc1cc(OC)ccc1C(=O)c1cc(OC)c(OC)c(OC)c1
not satisfied
CNCC(=O)Nc1cc(OC)ccc1C(=O)c1ccc(OC)c2c1OC(C)(C)C=C2
not satisfied

# strict comparison: is reported IC50 < 300 nM? input = COc1ccc(C(C)c2cc(OC)c(OC)c(OC)c2)c(NC(=O)CO)c1O (stereo unspecified)
not satisfied

# strict comparison: is reported IC50 < 300 nM? input = "CCNCC(=O)Nc1cc(OC)ccc1C(=O)c1ccc(OC)c2c1OC(C)(C)C=C2"
not satisfied

# strict comparison: is reported IC50 < 300 nM? input = "C=C(c1ccc(OC)cc1NC(=O)CN)c1ccc(OC)c2c1OC(C)(C)C=C2"
satisfied

# strict comparison: is reported IC50 < 300 nM? input = "COc1ccc(C(=O)c2ccc(OC)c3c2C=CC(C)(C)O3)c(NC(=O)CBr)c1"
not satisfied

# strict comparison: is reported IC50 < 300 nM? input = "COc1ccc(C(=O)c2ccc(OC)c3c2C=CC(C)(C)O3)c(NC(=O)CO)c1"
not satisfied

# strict comparison: is reported IC50 < 300 nM? input = "C=C(c1ccc(OC)cc1NC(=O)CNCC)c1ccc(OC)c2c1C=CC(C)(C)O2"
not satisfied

###

test.details: MRT in ICR mouse at 1 mg/kg, iv single administration measured for 24 hrs post treatment by LC-MS/MS analysis
Format: ADME, organism-based
measurement.conditions: in vivo
assay.metric: MRT (min)
Number only, in min; omit the unit.

Item "C=C(c1cc(OC)c(OC)c(OC)c1)c1ccc(OC)c(O)c1NC(=O)CO" has what recorded MRT?
40.8
